Target: T1, Full length recombinant HBcAg (rHBcAg) encompassing residues 1-183 (hepatitis B virus, UniProt P03146 1-183)
T1 construct: range 1-183; also called hepatitis B virus core antigen
T1 sequence (P03146 whole entry, the tested form may be a part): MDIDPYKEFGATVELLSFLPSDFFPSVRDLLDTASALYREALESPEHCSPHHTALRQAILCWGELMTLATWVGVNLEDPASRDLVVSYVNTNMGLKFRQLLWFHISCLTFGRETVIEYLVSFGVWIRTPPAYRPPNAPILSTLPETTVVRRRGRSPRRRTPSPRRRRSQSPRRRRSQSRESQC
Experiment: EIA, support-bound peptide, HBcAg 0.67 ug/ml
Strictly below 0.03 OD in OD: true (1). Otherwise: false (0).

1) VKPGASVKLSCKASGYIFTS (also called Peptide # 2; Pept. #2) [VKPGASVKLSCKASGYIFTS (SEQ. ID. No. 5)]
false (0)
2) VKPGASVKISCKASGYSFTG (also called Peptide # 25) [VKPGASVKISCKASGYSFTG (SEQ. ID. No. 28)]
false (0)
3) ISCRASQSVSTSSYSYMHWY [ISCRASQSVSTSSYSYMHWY (SEQ. ID. No. 17)]
false (0)
4) LAVSLGQRATISCRASQSVS [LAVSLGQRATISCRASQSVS (SEQ. ID. No. 16)]
true (1)
5) YNMNWVKQSHGKSLEWIGNI (also called Peptide # 27) [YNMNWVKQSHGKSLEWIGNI (SEQ. ID. No. 30)]
true (1)
6) CKASGYSFTGYNMNWVKQSH (also called Peptide # 26) [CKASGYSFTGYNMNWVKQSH (SEQ. ID. No. 29)]
true (1)
